Tested on: Erythrocyte
protocol summary: Induction of membrane permeabilization assessed as hemolysis in RBC (unknown origin) at 100 microM by spectrophotometry based hemoglobin release assay
Assay type: functional
Overview of recorded Activity for various molecules
measure: Activity

[[record]]
smiles_input = "O=S(=O)([O-])OCCCCCCCCCCC[Se]c1ccccc1.[Na+]"
measure = "Activity"
reported = "63.41%"

[[record]]
smiles_input = "O=S(=O)([O-])OCCCCCCCCCCCC[Te]c1ccccc1.[Na+]"
measure = "Activity"
reported = "67.61%"

[[record]]
smiles_input = "O=S(=O)([O-])OCCCCCCCCCCCC[Se]c1ccccc1.[Na+]"
measure = "Activity"
reported = "66.8%"

[[record]]
smiles_input = "O=S(=O)([O-])OCCCCCCCCCC[Se]c1ccccc1.[Na+]"
measure = "Activity"
reported = "7.94%"

[[record]]
smiles_input = "O=S(=O)([O-])OCCCCCCCC[Te]c1ccccc1.[Na+]"
measure = "Activity"
reported = "3.09%"


###

Tested on: Erythrocyte
protocol summary: Induction of membrane permeabilization assessed as hemolysis in RBC (unknown origin) at 100 microM by spectrophotometry based hemoglobin release assay
Format: functional
Values of Activity strictly less than 20% map to true, and values of at least 20% map to false.

[[record]]
compound = "O=S(=O)([O-])OCCCCCCCCCC[Te]c1ccccc1.[Na+]"
label_value = "false"

[[record]]
compound = "O=S(=O)([O-])OCCCCCCCCCCC[Te]c1ccccc1.[Na+]"
label_value = "false"

[[record]]
compound = "O=S(=O)([O-])OCCCCCCCCC[Se]c1ccccc1.[Na+]"
label_value = "true"

[[record]]
compound = "O=S(=O)([O-])OCCCCCCCC[Se]c1ccccc1.[Na+]"
label_value = "true"

[[record]]
compound = "CCCCCCCCCCCCOS(=O)(=O)[O-].[Na+] [SODIUM LAURYL SULFATE]"
label_value = "true"


###

Overview of recorded log10(CMC) for various molecules
protocol summary: Critical micelle concentration of the compound by KRUSS tensiometry
Type: physicochemical
measure: log10(CMC) (log10 of the value in mM)

[[record]]
smiles_input = "O=S(=O)([O-])OCCCCCCCCCCCC[Te]c1ccccc1.[Na+]"
measure = "log10(CMC)"
reported = -0.52

[[record]]
smiles_input = "O=S(=O)([O-])OCCCCCCCC[Te]c1ccccc1.[Na+]"
measure = "log10(CMC)"
reported = 0.70

[[record]]
smiles_input = "O=S(=O)([O-])OCCCCCCCCCCC[Te]c1ccccc1.[Na+]"
measure = "log10(CMC)"
reported = -0.30

[[record]]
smiles_input = "O=S(=O)([O-])OCCCCCCCCCCC[Se]c1ccccc1.[Na+]"
measure = "log10(CMC)"
reported = 0.04

[[record]]
smiles_input = "O=S(=O)([O-])OCCCCCCCCCC[Te]c1ccccc1.[Na+]"
measure = "log10(CMC)"
reported = -0.05

[[record]]
smiles_input = "O=S(=O)([O-])OCCCCCCCCC[Te]c1ccccc1.[Na+]"
measure = "log10(CMC)"
reported = 0.68


###

protocol summary: Critical micelle concentration of the compound by KRUSS tensiometry
Type: physicochemical
Overview of recorded CMC for various molecules
measure: CMC (mM)

[[record]]
molecule = "O=S(=O)([O-])OCCCCCCCC[Se]c1ccccc1.[Na+]"
measure = "CMC"
reported = 2.6

[[record]]
molecule = "O=S(=O)([O-])OCCCCCCCCCC[Se]c1ccccc1.[Na+]"
measure = "CMC"
reported = 1.2

[[record]]
molecule = "O=S(=O)([O-])OCCCCCCCCCCCC[Se]c1ccccc1.[Na+]"
measure = "CMC"
reported = 0.7

[[record]]
molecule = "CCCCCCCCCCCCOS(=O)(=O)[O-].[Na+] [SODIUM LAURYL SULFATE]"
measure = "CMC"
reported = 0.9

[[record]]
molecule = "O=S(=O)([O-])OCCCCCCCCC[Se]c1ccccc1.[Na+]"
measure = "CMC"
reported = 2.5

